# System Under Test: TDP-43 (Homo sapiens, UniProt Q13148 1-414)
# Sequence (Q13148 whole entry): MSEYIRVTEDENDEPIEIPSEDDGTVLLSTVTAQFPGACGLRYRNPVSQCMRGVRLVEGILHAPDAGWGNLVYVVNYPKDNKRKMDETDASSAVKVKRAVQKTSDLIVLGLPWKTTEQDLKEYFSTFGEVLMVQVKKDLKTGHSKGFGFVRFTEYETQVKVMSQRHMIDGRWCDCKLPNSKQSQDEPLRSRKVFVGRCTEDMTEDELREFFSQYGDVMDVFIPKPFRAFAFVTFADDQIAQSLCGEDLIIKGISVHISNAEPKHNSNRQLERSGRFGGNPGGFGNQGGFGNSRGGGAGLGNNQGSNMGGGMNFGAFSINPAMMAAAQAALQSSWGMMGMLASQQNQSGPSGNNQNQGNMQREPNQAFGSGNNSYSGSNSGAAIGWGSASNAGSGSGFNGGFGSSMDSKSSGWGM
# Test: RNA Bind-n-Seq with designed 260-mer pool; 25 mM Tris-HCl, 150 mM KCl, 3 mM MgCl2, BSA (printed 500 mg/mL), 20 units/mL SUPERase IN; pH not stated; 500 nM RNA pool, 1 h, 4 C; TDP-43 5, 50, 500 nM; high values mean tight binding
# Applied Conditions: protein: recombinant; tags: SBP (GST cleaved off with PreScission; pGEX-GST-SBP)
Over roughly 9,900 sequences, “r (bound/input frequency ratio)” has its median near 0.7; the highest 2% begin near 6.5. The full list was thinned out, with the highest values kept by preference.
In this section, each of the binders is paired with its reported binding signal.
Assay Readout: binding signal

{"Binder": "ENSMUSG00000031028.145|Tub (ssRNA) RNA: GGGAGUUCUACAGUCCGACGAUCGCUUCGAUAUCCGCAUGCUAACAGGAUCUAGGUCACCAUUCAAGUAAUGGUAUGCUUCAGGAAGAAUGUCCUCUCUGGGAAGACUCAGCUCCCAUUAUUGCCAGCAUGCCAUGAUCAGUGAGGGCUGUGUGCCAUGCUUAGGGGGAUGGCGCAGGGUGAGGGGAGCAGAGGAUAUUUUAGGGCCACAAGAGCUCAGAGGUAGCGGACCUCUGUGUGGUUCACCAACAGCAAUGCUGAUCCCUGAGUAUAGGGCACAUGUCUCUUGGUUACCUCACUGGUUCUCUUGCGGUCGCACUAGUGUGGAAUUCUCGGGUGUCAAGG", "Observed Result": "0.682 R (bound/input frequency ratio)"}
{"Binder": "ENSMUSG00000004113.139|Cacna1b|48:52;226:230 (ssRNA) RNA: GGGAGUUCUACAGUCCGACGAUCGCUUCGAUAUCCGCAUGCUACACCAGUGAUCUCACGUCUCUUGUGGUCUUGGAGUCAAAUAGCACAUCAUACUAGAGAUGCGCUCAAGGGCCUGCCUUUCACCUACACUGUCACCAUAACAGGGACCAAAUCUGGAGGAUGUCCUUGCUGUUGAUUCUGGUUUUCAGUCACAACACUUUCACUGUUUGUCAUUUCUAUGUAGUUGAUCUAGAAAAAGCAGAAAUCAAAACAGGAAAGGAAAUGUUACACAAACUUUAAAAAAAAAGUCAACAUGUAGGAACUCUUGCGGUCGCACUAGUGUGGAAUUCUCGGGUGUCAAGG", "Observed Result": "0.174 R (bound/input frequency ratio)"}
{"Binder": "ENSMUSG00000061578.107|Ksr2|134:138;220:225 (ssRNA) RNA: GGGAGUUCUACAGUCCGACGAUCGCUUCGAUAUCCGCAUGCUAGGCCUCUCUGGGGACCAGUCCCUGGCCUUCACCCUUCUCCCAUUUUGUAAGAACACUGUUCUAACUCACCUCAUGCCCACGCUACCCUGGGCAACUGGAGAACACCAUAGCGUUUCAGCUGAUGUGACAUUUGCACACACCUUUACCAGUUCACCAUCAUUCAUGGCUUCCCCCAAAGUCCCGAGUCCUGAGAACCGGGGCUGUGGCAAGAGAGUUCUGCACACAUCUCUCUGUGGGGCUAGCAAUGCCGGGGUUAAGUUCUCUUGCGGUCGCACUAGUGUGGAAUUCUCGGGUGUCAAGG", "Observed Result": "0.895 R (bound/input frequency ratio)"}
{"Binder": "ENSMUSG00000028439.112|Fam219a (ssRNA) RNA: GGGAGUUCUACAGUCCGACGAUCGCUUCGAUAUCCGCAUGCUACAAAGGGAUACUGUCUCUCCAUUAGAUAACUCCUUCCACUGUCUCCCUCCCCCGCUUUCUUACUUUCUGAGGGUUGGGAAGGUAAGAUGGGCCUUAGAGAGAAGCCAGGUUUGGGGAUGGUAUGACCUGUUCUCACCGGUCUCUAACCAGUGCAUCUGUCUCUCUGCCUCAUCCCCACACCGCCCUGCCACCCCCAGUCUUCUGUCUAUUGGUUCCAGGCUGGAAGCAAGAGAUAAGGCUGGCCUCCUGUGCCCCAUUGCCUCUUGCGGUCGCACUAGUGUGGAAUUCUCGGGUGUCAAGG", "Observed Result": "0.71 R (bound/input frequency ratio)"}
{"Binder": "ENSMUSG00000022095.268|Fam160b2|37:57;104:108;240:245 (ssRNA) RNA: GGGAGUUCUACAGUCCGACGAUCGCUUCGAUAUCCGCAUGCUAAGAGAGAGAGAGAGAGCGAGCUAUGAAUGAAUGUGACACACACACACACACACACACAGAGAGAGAGAGAGAGAGAGAGAGCUGUGAGUACACAUGGGUGCUGCACACGGACAGGAGCAGAUCUUGGUGGAGUGGGUCUACACUUGAGAUUUGUACUCGUUUGAGAGGCUGGGCAAUACUCAAUGCACUUUGGCAUUUGCAUGGUGUCUUCACAACAGCACAGCAAUAAACAUUGUGAUACACACGACAUGCUGACUCUCCUCUUGCGGUCGCACUAGUGUGGAAUUCUCGGGUGUCAAGG", "Observed Result": "6.08 R (bound/input frequency ratio)"}
{"Binder": "ENSMUSG00000061578.893|Ksr2 (ssRNA) RNA: GGGAGUUCUACAGUCCGACGAUCGCUUCGAUAUCCGCAUGCUAGGCCAUCAGGGCCCCAUUCUGAGGUCCUGGGACACUACCCAAACCCUAGCACUCUCCCAGUGACUCUCCUAUGAGUACAUAUGCCAUCCUGCUUCCUUUGUGGCAAAACCCUGGGUCACCCAGAGACAGAUUUCCCAGAAUCCCUGGGCCACUUCUCAAUUCUACCCAUGACAGACAUGUCCCAUCCAUGAGCCCAGAUAGUCAAAGACUUCAGCACAAGGGUGUUUAGAGUAGGCAGUGUGGAAGUAUCAAUAAGGUUACUCUUGCGGUCGCACUAGUGUGGAAUUCUCGGGUGUCAAGG", "Observed Result": "0.438 R (bound/input frequency ratio)"}
{"Binder": "ENSMUSG00000029636.126|Wasf3 (ssRNA) RNA: GGGAGUUCUACAGUCCGACGAUCGCUUCGAUAUCCGCAUGCUAUCACUUUCAUGGCUAGCCCUGAUAGCGUUGGGCACCAGUUAGCCAGGCCAUGUUCAAGCUGCCUAGAGUCUGCAGAGCUUGCAUGGCAGAGCGGCCGCAUCUGGUUCCCUCCUACUCCACCCAGUGGAAAAGAGACCUCCACGUUUUAUUUUCUGGGAUCCCUGCUCCUCUGUUCACCAGGGAGUGAGCACAGGUCAGCACCUCACCCCCCUUGCUCUGAAUCAUGGAAGCUUGGCUUUAGCUGAGAGAUGCCACCAGCUCUCUUGCGGUCGCACUAGUGUGGAAUUCUCGGGUGUCAAGG", "Observed Result": "1.2 R (bound/input frequency ratio)"}
